Tested on: pea aphid
Test: Seven-day residual insecticidal activity, pea aphid
Type: in vivo, Acyrthosiphon pisum (Harris)
Conditions: Acyrthosiphon pisum, 1250 ppm, 48-hour exposure, read-out: % Kill, Pea Aphid
Description: b. Seven-Day Residual Insecticidal Activity In this test, a candidate insecticide, in solution, is applied to uninfested plants or containers by dipping or spraying. A seven-day holding period is necessary before infestation. A 48-hour exposure period is observed before evaluation of the tests. The insect species used in this type of test are the same as those listed under initial activity.
Result Type: mortality at 1250 ppm (%)
# value in %; strip the unit string

Recorded mortality at 1250 ppm (compound CCCN(SN(C)C(=O)Oc1cccc2c1OC(C)(C)C2)P(=O)(OCC)OCC ): 100

For this compound ( CCOP(=O)(OCC)N(C)SN(C)C(=O)Oc1cccc2c1OC(C)(C)C2 ), measured mortality at 1250 ppm is 100

mortality at 1250 ppm in this record for CCCOP(=O)(OCCC)N(C)SN(C)C(=O)Oc1cccc2c1OC(C)(C)C2 : 56

# mortality at 1250 ppm of CCCN(SN(C)C(=O)Oc1cccc2c1OC(C)(C)C2)P(=O)(Oc1ccccc1)Oc1ccccc1 = 0

The measured mortality at 1250 ppm associated with CCOP(=O)(OCC)N(CCc1ccccc1)SN(C)C(=O)Oc1cccc2c1OC(C)(C)C2 reads 0

mortality at 1250 ppm recorded for this compound, CC(C)OP(=O)(OC(C)C)N(C)SN(C)C(=O)Oc1cccc2c1OC(C)(C)C2 , is 5

Entry under test: CCN(SN(C)C(=O)Oc1cccc2c1OC(C)(C)C2)P(=O)(OC)OC . Its mortality at 1250 ppm was 62

Noted for CCCOP(=O)(OCCC)N(CCC)SN(C)C(=O)Oc1cccc2c1OC(C)(C)C2 : its mortality at 1250 ppm reads 73

// recorded mortality at 1250 ppm for CCOP(=O)(OCC)N(CC)SN(C)C(=O)Oc1cccc2c1OC(C)(C)C2 : 0
